Listing of recorded activity, negative = inhibition by entry.
target: Cytochrome P450 1A2 (Homo sapiens) (UniProt P05177); test: Cytochrome panel assay with activity outcomes; conditions: recombinant CYP, pro-luciferin dealkylation, luminescence, p450-cyp1a2; series mostly up to 57.1 µM; note: % is set by controls: 0 for no effect and ±100 for the full control effect
Sequence (P05177 whole entry, looked up): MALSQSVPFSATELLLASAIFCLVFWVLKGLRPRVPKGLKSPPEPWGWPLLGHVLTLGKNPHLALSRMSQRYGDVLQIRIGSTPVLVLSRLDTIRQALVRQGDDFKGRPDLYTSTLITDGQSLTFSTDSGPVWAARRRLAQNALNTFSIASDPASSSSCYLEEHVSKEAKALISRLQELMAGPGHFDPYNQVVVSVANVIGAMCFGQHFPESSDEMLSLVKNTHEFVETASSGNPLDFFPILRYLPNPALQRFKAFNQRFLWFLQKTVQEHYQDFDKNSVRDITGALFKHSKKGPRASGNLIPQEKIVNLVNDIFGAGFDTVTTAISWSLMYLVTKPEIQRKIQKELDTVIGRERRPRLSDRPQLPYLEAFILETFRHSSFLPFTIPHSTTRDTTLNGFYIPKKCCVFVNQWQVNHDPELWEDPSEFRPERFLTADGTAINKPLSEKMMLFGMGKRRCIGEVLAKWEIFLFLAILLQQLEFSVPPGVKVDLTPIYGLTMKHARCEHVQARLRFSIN
The whole screen tested about 16,000 compounds, of which about 5,700 (36%) were called active. Roughly 24% stayed inconclusive and do not appear here. Some of the results follow.
measured metric: activity, negative = inhibition

substance smiles | measured metric | val
O=C(O)CCCSc1nc2ccccc2s1 | activity, negative = inhibition | -16.9% [at 11.4 µM] (inactive)
CO[C@H]1COC(=O)C/C=C\[C@@H](C)COC(=O)[C@@H](OCc2ccccc2)/C=C\[C@@H]1C | activity, negative = inhibition | -1.45% [at 11.4 µM] (inactive)
c1ccc(C(CCN2CC3CCC(CC3)C2)c2ccccc2)cc1 | activity, negative = inhibition | 9.33% [at 11.4 µM] (inactive)
O=C1[C@H]2[C@H]3[C@H](O)[C@H](O)C/C(=N/OCc4ccccc4)[C@H]3CC[C@@H]2C(=O)N1Cc1ccc2c(c1)OCO2 | activity, negative = inhibition | -4.06% [at 11.4 µM] (inactive)
NC(Cc1ccccc1)=NCC(=O)O | activity, negative = inhibition | -5.52% [at 11.4 µM] (inactive)
CC(C)=CCC/C(C)=C/CO/N=C1/[C@H]2O[C@@H]2[C@@H](O)[C@H]2[C@H]1CCn1c(=O)n(-c3ccccc3)c(=O)n12 | activity, negative = inhibition | 3.05% [at 11.4 µM] (inactive)
CC1(C)OC[C@@H]2O[C@H](n3cnc4c(N)nc(Cl)nc43)[C@@H](OS(C)(=O)=O)[C@@H]2O1 | activity, negative = inhibition | -14.5% [at 2.29 µM] (inactive)
C=C1CCO[C@@]2([C@H](O)[C@@](C)(O)CO)NC(=O)[C@]1(O)NC2=O | activity, negative = inhibition | -3.99% [at 2.29 µM] (inactive)
N/C(CC/C(N)=N/O)=N\O | activity, negative = inhibition | -17.8% [at 11.4 µM] (inactive)
CC[C@H](C(=O)c1cccs1)C(O)(C(F)(F)F)C(F)(F)F | activity, negative = inhibition | -17.5% [at 2.29 µM] (inactive)
O=S(=O)(C[C@H](O)C(Cl)(Cl)Cl)NNc1ccccc1 | activity, negative = inhibition | 0.811% [at 2.29 µM] (inactive)
CC(C)N1CCN(c2ccncc2S(=O)(=O)N2CCCCC2)CC1 | activity, negative = inhibition | -16.9% [at 2.29 µM] (inactive)
O=C(O)C[C@H](S)C(=O)O | activity, negative = inhibition | -2.96% [at 11.4 µM] (inactive)
COc1ccc(O[C@H]2C=C[C@@H](c3ccccc3)O[C@@H]2CO/N=C(\C)CCN2CCc3nc(-c4ccccc4)c(-c4ccccc4)cc3C2)cc1 | activity, negative = inhibition | -6.98% [at 11.4 µM] (inactive)
CC(C)(C)COS(=O)OCC(C)(C)C | activity, negative = inhibition | -15.5% [at 11.4 µM] (inactive)
O=C(O)/C=C\C(=O)Nc1ncn[nH]1 | activity, negative = inhibition | -8.55% [at 11.4 µM] (inactive)
CC(C)(N=NC(C)(C)C(=N)N)C(=N)N | activity, negative = inhibition | -4.86% [at 11.4 µM] (inactive)
Cc1ccccc1S(=O)(=O)O[C@@H]1NS(=O)(=O)c2ccccc21 | activity, negative = inhibition | 13.5% [at 2.29 µM] (inactive)
CO[C@@H]1COC(=O)C/C=C\[C@@H](C)COC(=O)[C@H](COCc2ccccc2)NC(=O)C/C=C\[C@H]1C | activity, negative = inhibition | -7.1% [at 11.4 µM] (inactive)
N[C@@H](CSC(=O)c1ccccc1)C(=O)O | activity, negative = inhibition | -14.7% [at 11.4 µM] (inactive)
Cc1ccc(S(=O)(=O)N[C@H](C(=O)O)C(C)C)cc1 | activity, negative = inhibition | -11% [at 11.4 µM] (inactive)
CC(C)=NOCc1ccc(-c2cn([C@@H]3COC[C@@H]3O)nn2)cc1 | activity, negative = inhibition | -5.29% [at 11.4 µM] (inactive)
